ASSAY SYSTEM: hM4 muscarinic receptor (Homo sapiens)
Construct: expressed in transfected cells; host or cells: CHO cells, stably transfected; membrane fractions
ASSAY PROCEDURE: Equilibrium inhibition binding with [3H]-NMS, CHO cell membranes
COND: [3H]-NMS 0.2 nM, CHO membranes, mean ± SEM of 3-4 experiments; read-out: pKi hM4 (converted)
REPORTED METRIC: log10 Ki (log10 of the value in µM)
Please be aware that the numbers have been log10-transformed from Ki in µM.

I'd like to know its log10 Ki. The molecule in question is N=C(N)c1ccc(OCCCCCOc2ccc(C(=N)N)cc2)cc1
0.12

log10 Ki lookup needed for CC[N+](CC)(CC)CCOc1cccc(OCC[N+](CC)(CC)CC)c1OCC[N+](CC)(CC)CC , thanks.
-0.10

Dear colleague, I am looking for the recorded log10 Ki of the following molecule: CC(C)(C)c1ccc(C(O)CCCN2CCC(C(O)(c3ccccc3)c3ccccc3)CC2)cc1 (centres unmarked)
1.04

For CC(=O)N1CCN(c2ccc(OCC3COC(Cn4ccnc4)(c4ccc(Cl)cc4Cl)O3)cc2)CC1 (centres unmarked) , what is its reported log10 Ki?
0.66

Returns the measured log10 Ki for the input molecule. Input: OCc1cc(C(O)CNCCCCCCOCCCCc2ccccc2)ccc1O (centres unmarked)
0.99

Entry Cc1cc(N)c2ccccc2[n+]1CCCCCCCCCC[n+]1c(C)cc(N)c2ccccc21 : reported log10 Ki = ?
-1.16

log10 Ki for [H]/N=C(\N/C(=N/[H])NCCCCCCNC(=N)NC(=N)Nc1ccc(Cl)cc1)Nc1ccc(Cl)cc1 ?
0.21

# lookup: log10 Ki of C[N+](C)(CCCCCC[N+](C)(C)CCCN1C(=O)c2ccccc2C1=O)CCCN1C(=O)c2ccccc2C1=O
0.70

If you can, please state the reported log10 Ki value of N=C(N)c1ccc(/N=N/Nc2ccc(C(=N)N)cc2)cc1 .
0.95

---

ASSAY SYSTEM: hM3 muscarinic receptor (Homo sapiens)
Construct: expressed in transfected cells; host or cells: CHO cells, stably transfected; membrane fractions
Sequence (P20309 whole entry): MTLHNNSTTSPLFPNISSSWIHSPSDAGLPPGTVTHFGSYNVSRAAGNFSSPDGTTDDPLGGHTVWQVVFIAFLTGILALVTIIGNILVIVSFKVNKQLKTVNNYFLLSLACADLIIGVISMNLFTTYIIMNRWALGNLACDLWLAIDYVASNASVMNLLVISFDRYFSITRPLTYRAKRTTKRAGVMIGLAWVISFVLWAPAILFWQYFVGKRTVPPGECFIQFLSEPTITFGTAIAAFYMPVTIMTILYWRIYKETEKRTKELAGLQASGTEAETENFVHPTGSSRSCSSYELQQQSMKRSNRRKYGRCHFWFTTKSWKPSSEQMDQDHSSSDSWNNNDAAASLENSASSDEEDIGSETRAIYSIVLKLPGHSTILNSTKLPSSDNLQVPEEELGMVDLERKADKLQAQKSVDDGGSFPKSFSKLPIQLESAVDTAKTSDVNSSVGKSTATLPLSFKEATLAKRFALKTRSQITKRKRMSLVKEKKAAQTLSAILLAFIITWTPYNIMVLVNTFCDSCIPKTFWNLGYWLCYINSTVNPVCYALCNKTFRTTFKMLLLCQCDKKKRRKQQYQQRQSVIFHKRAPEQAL
ASSAY PROCEDURE: Equilibrium inhibition binding with [3H]-NMS, CHO cell membranes
COND: [3H]-NMS 0.2 nM, mean ± SEM of 3-4 experiments, read-out: pKi hM3 (converted)
Answer each item with its documented Ki.
# number only, unit µM dropped from output

Dear colleague, I am looking for the recorded Ki of the following compound: [H]/N=C(\N/C(=N/[H])NCCCCCCNC(=N)NC(=N)Nc1ccc(Cl)cc1)Nc1ccc(Cl)cc1 [chlorhexidine]
2.14

What value of measured Ki is listed for N=C(N)c1ccc(/N=N/Nc2ccc(C(=N)N)cc2)cc1 [diminazene] ?
4.79

Any idea what Ki was measured for OCc1cc(C(O)CNCCCCCCOCCCCc2ccccc2)ccc1O (stereo not drawn) [salmeterol] ?
12

Given the entry Cc1cc(N)c2ccccc2[n+]1CCCCCCCCCC[n+]1c(C)cc(N)c2ccccc21 [dequalinium] , report its measured Ki.
0.17

Can you look up the measured Ki of C[N+](C)(CCCCCC[N+](C)(C)CCCN1C(=O)c2ccccc2C1=O)CCCN1C(=O)c2ccccc2C1=O [W84] for me?
5.5

---

ASSAY SYSTEM: hM4 muscarinic receptor (Homo sapiens, UniProt P08173)
Construct: expressed in transfected cells; host or cells: CHO cells, stably transfected; membrane fractions
Sequence (P08173 whole entry): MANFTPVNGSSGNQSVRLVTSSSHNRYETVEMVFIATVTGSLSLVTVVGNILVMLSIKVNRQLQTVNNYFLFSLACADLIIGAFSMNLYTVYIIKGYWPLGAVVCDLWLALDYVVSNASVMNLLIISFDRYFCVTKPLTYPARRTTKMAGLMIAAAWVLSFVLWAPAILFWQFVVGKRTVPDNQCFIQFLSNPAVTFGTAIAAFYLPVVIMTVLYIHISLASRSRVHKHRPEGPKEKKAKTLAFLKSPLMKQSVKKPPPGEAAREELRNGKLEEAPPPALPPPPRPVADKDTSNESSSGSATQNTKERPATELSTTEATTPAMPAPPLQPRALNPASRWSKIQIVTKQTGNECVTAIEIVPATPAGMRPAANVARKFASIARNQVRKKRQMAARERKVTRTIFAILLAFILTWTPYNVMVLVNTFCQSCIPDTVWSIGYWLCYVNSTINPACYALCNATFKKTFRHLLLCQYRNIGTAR
ASSAY PROCEDURE: Equilibrium inhibition binding with [3H]-NMS, CHO cell membranes
REPORTED METRIC: Ki

Dear colleague, I am looking for the recorded Ki of the following compound: C[n+]1ccc(-c2cc[n+](C)cc2)cc1
> 100 µM

---

ASSAY SYSTEM: [3H]-NMS-occupied muscarinic hM2 subtype (Homo sapiens, UniProt P08172)
Construct: expressed in transfected cells; host or cells: CHO cells, stably transfected; membrane fractions
Sequence (P08172 1-466): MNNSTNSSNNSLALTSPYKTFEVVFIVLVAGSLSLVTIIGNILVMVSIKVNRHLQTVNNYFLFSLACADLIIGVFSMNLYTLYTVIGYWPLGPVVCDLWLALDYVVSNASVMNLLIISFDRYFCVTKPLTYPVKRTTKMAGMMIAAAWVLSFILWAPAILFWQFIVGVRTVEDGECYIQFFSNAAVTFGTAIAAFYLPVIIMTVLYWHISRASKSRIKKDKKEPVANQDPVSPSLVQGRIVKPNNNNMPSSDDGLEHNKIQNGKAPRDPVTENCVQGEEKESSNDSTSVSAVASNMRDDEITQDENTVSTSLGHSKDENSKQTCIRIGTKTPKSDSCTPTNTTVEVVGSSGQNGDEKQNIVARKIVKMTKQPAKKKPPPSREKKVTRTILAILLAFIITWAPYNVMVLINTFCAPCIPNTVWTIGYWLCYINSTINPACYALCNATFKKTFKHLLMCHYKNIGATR
ASSAY PROCEDURE: One point kinetic (off-rate) assay of [3H]-NMS dissociation
Format: binding
COND: read-out: Log Kocc hM2 (converted)
REPORTED METRIC: Kd (µM)
Value expressed in µM; do not type the unit.

Lab note: need Kd for N=C(N)c1ccc(/N=N/Nc2ccc(C(=N)N)cc2)cc1 on [3H]-NMS-occupied muscarinic hM2 subtype (Homo sapiens, UniProt P08172), anyone have it?
155

What value of Kd on [3H]-NMS-occupied muscarinic hM2 subtype (Homo sapiens, UniProt P08172) does Cc1cc(N)c2ccccc2[n+]1CCCCCCCCCC[n+]1c(C)cc(N)c2ccccc21 have?
0.0191

What Kd appears in the records for this molecule with [3H]-NMS-occupied muscarinic hM2 subtype (Homo sapiens, UniProt P08172)? C[N+](C)(CCCCCC[N+](C)(C)CCCN1C(=O)c2ccccc2C1=O)CCCN1C(=O)c2ccccc2C1=O
0.288
